# Measurement protocol: qHTS Assay for Spectroscopic Profiling in 4-MU Spectral Region
# Stated conditions: compound autofluorescence, 340/450 nm, 4-MU equivalents
# Excerpt: NIH Molecular Libraries Screening Centers Network [MLSCN] NIH Chemical Genomics Center [NCGC] […] While the most informative fluorescent profiling data set is obtained by performing a full excitation and emission scan of each well by using a monochromator-based plate reader, such an approach is practical only on a very limited scale as scanning each well requires long time. […]
The campaign covered roughly 59,000 compounds. About 6,200 (11%) were called active. Not shown: some 9% with an inconclusive outcome. Cut-off read from the data, not from the text of the source: active = max dye-equivalent concentration above about 10 nM; inconclusive = mostly about 1.1 nM to 9.6 nM; inactive = weaker than that. For the sample, actives were picked, then their nearest neighbours and some compounds at random.
Choose the fitting class; nothing outside active, inactive is accepted.

Observe how each entry below is paired with its result.
Cc1ccc(C(CC(=O)O)Nc2nc(N3CCCCC3)nc(N3CCCCC3)n2)cc1 (stereo unspecified); inactive
CCOc1cc(CO)ccc1OCC(=O)N1CCCCC1; inactive
COc1ccc(-n2c(SCC(=O)Nc3ccc4c(c3)OCO4)nnc2C(C)N2CCCCC2)cc1 (stereo unspecified); inactive
Cn1c(SCC(=O)OC2CCCCC2)nnc1-c1ccc(S(=O)(=O)N2CCCC2)cc1; inactive
CCc1nnc(NC(=O)C2CCCN2S(=O)(=O)c2ccccc2)s1 (stereo unspecified); active

What is the recorded call for this molecule in the test? Cc1ccc(C(=O)OCC(=O)NCc2ccc3c(c2)OCO3)s1
inactive

Cool, now COC(=O)[C@@H](NC(=O)NCc1cccc(OC)c1)C(C)C
inactive

Cool, now O=C(COc1ccccc1)N1CCc2ccccc2C1
inactive

Cool, now COc1cc(Cl)cc(C2NC(=O)NC(C)=C2C(=O)NCc2ccccc2)c1O (stereo unspecified)
inactive

Cool, now COc1cccc(OCC(=O)Nc2ccccc2C(N)=O)c1
inactive

Cool, now O=C1c2ccccc2C(=O)N1c1ccccc1S(=O)C(F)(F)F (stereo unspecified)
inactive
